Cited source: patent US20140315889A1

Measured pIC50 accompanies every entry in the list below.
- Subject of test: Human recombinant HDAC1 (Homo sapiens)
- Construct: purchased Enzo Life Science Co. (named for the kit; assigned to the enzyme from the BML- catalogue prefix) BML-SE456
- Sequence (Q13547 whole entry): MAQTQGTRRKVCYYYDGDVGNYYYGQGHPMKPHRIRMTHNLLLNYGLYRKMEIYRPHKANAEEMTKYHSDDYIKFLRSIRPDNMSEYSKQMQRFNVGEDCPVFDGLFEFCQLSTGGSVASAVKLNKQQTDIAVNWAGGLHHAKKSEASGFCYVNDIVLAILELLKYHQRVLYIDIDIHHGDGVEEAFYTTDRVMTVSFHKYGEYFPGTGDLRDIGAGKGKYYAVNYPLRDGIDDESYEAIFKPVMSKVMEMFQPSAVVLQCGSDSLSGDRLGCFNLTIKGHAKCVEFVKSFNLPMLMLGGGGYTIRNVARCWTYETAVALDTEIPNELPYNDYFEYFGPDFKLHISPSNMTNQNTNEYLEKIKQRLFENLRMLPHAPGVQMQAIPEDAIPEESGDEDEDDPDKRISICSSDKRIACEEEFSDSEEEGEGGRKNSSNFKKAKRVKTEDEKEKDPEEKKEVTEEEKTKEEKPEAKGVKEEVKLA
- Assay method text: HDAC enzyme activity test, HDAC1
- Format: biochemical
- Condition: Table 12; read-out: Inhibition ability (IC50) HDAC1
pIC50: −log10 of the molar value.
Reported endpoint: pIC50

Compound: CN1CCN(CC2CCc3c(c4cc(F)ccc4n3Cc3ccc(C(=O)NO)cc3)C2=O)CC1 (centres unmarked) [Compound 142]
Value reported: 5.58
//
Compound: CC1(C)CC(=O)c2c(n(CCCCCCC(=O)NO)c3ccc(Br)cc23)C1 [Compound 50]
Value reported: 6.80
//
Compound: O=C(NO)c1ccc(Cn2c3c(c4cc(F)ccc42)C(=O)N(CCN2CCC[C@H]2CO)CC3)cc1 [Compound 290]
Value reported: 5.19
//
Compound: CC1(C)CC(=O)c2c(C(F)(F)F)nn(Cc3ccc(C(=O)NO)cc3)c2C1 [Compound 237]
Value reported: 5.41
//
Compound: Cc1cc2c(n1CCCCCC(=O)NO)CC(C)(C)CC2=O [Compound 345]
Value reported: 6.40
//
Compound: CS(=O)(=O)N1CCN(CC2CCc3c(c4ccccc4n3Cc3ccc(C(=O)NO)cc3)C2=O)CC1 (centres unmarked) [Compound 130]
Value reported: 5.58
//
Compound: CC(C)(O)CN1CCN(CC2CCc3c(c4cc(F)ccc4n3Cc3ccc(C(=O)NO)cc3)C2=O)CC1 (centres unmarked) [Compound 191]
Value reported: 5.08
//
Compound: CC1(C)CC(=O)c2c(n(CCCCCCC(=O)NO)c3c(Cl)cc(Cl)cc23)C1 [Compound 51]
Value reported: 5.88
//
Compound: O=C(NO)c1ccc(Cn2c3c(c4ccccc42)C(=O)C(CN2CCCC2)CC3)cc1 (centres unmarked) [Compound 88]
Value reported: 5.40
//
Compound: O=C(CCCCCn1c2c(c3ccccc31)C(=O)C(CN1CCC(F)(F)C1)CC2)NO (centres unmarked) [Compound 204]
Value reported: 5.71
//
Compound: O=C(NO)c1ccc(Cn2c3c(c4cc(F)ccc42)C(=O)NCC3)cc1 [Compound 306]
Value reported: 5.49
//
Compound: CCCCN1CCN(CC2CCc3c(c4ccccc4n3CCCCCC(=O)NO)C2=O)CC1 (centres unmarked) [Compound 208]
Value reported: 6.55
//
Compound: O=C(NO)c1ccc(Cn2c3c(c4cc(F)ccc42)C(=O)C(CN2CC[C@@H](F)C2)CC3)cc1 (some centres unmarked) [Compound 283]
Value reported: 4.93
//
Compound: O=C(NO)c1ccc(Cn2c3c(c4cc(F)ccc42)C(=O)CCC3)cc1 [Compound 157]
Value reported: 5.44
//
Compound: Cc1cc2c(n1CCCCCCC(=O)NO)CCCC2=O [Compound 346]
Value reported: 6.59
//
Compound: Cc1c2c(n(CCCCCC(=O)NO)c1C)CC(C)(C)CC2=O [Compound 350]
Value reported: 6.00
//
Compound: CC1(C)CC(=O)c2c(n(CCCCCC(=O)NO)c3c(Cl)ccc(Cl)c23)C1 [Compound 48]
Value reported: 5.36

###

- Subject of test: human recombinant HDAC6 (Homo sapiens)
- Construct: purchased Calibiochem Co. (so in the source) 382180
- Assay method text: HDAC enzyme activity test, HDAC6
- Assay type: biochemical
- Condition: Table 12; ratio HDAC1 IC50 / HDAC6 IC50
Collected Selectivity for HDAC6, HD1/HD6 values appear next to each entry.
Reported endpoint: Selectivity for HDAC6, HD1/HD6

Molecule: CC(C)N1CCN(CC2CCc3c(c4ccccc4n3Cc3ccc(C(=O)NO)cc3)C2=O)CC1 (centres unmarked) [Compound 113]
Value reported: 287.1
--
Molecule: Cc1c2c(n(Cc3ccc(C(=O)NO)cc3)c1C)CCC(CN1CCOCC1)C2=O (centres unmarked) [Compound 268]
Value reported: 448.4
--
Molecule: O=C(NO)c1ccc(Cn2c3c(c4ccccc42)C(=O)C(CN2CCCCC2)CC3)cc1 (centres unmarked) [Compound 86]
Value reported: 286.1
--
Molecule: O=C(NO)c1ccc(Cn2c3c(c4ccccc42)C(=O)C(CN2CCN(C(=O)C4CC4)CC2)CC3)cc1 (centres unmarked) [Compound 156]
Value reported: 424.8
--
Molecule: CC(C)(O)CN1CCN(CC2CCc3c(c4cc(F)ccc4n3Cc3ccc(C(=O)NO)cc3)C2=O)CC1 (centres unmarked) [Compound 191]
Value reported: 1115.6
--
Molecule: Cc1nccn1CC1CCc2c(c3ccccc3n2Cc2ccc(C(=O)NO)cc2)C1=O (centres unmarked) [Compound 85]
Value reported: 225
--
Molecule: CS(=O)(=O)N1CCN(CC2CCc3c(c4ccccc4n3Cc3ccc(C(=O)NO)cc3)C2=O)CC1 (centres unmarked) [Compound 130]
Value reported: 564.9
--
Molecule: CC1(C)Cc2c(c3ccccc3n2Cc2ccc(C(=O)NO)cc2)C(=O)C1CN1CCOCC1 (centres unmarked) [Compound 122]
Value reported: 153
--
Molecule: CC1(C)CC(=O)c2c(n(CCCCCC(=O)NO)c3ccc(F)c(F)c23)C1 [Compound 74]
Value reported: 33.3
--
Molecule: Cc1c2c(n(Cc3ccc(C(=O)NO)cc3)c1C)CC(C)(C)CC2=O [Compound 236]
Value reported: 479.4
--
Molecule: Cc1cn(Cc2ccc(C(=O)NO)cc2)c2c1C(=O)CC(C)(C)C2 [Compound 136]
Value reported: 380.3
--
Molecule: O=C(NO)c1ccc(Cn2c3ccc(F)cc3c3c(=O)[nH]ccc32)cc1 [Compound 305]
Value reported: 980.4
--
Molecule: CC1(C)CC(=O)c2c(n(CCCCCCC(=O)NO)c3ccc(Br)cc23)C1 [Compound 50]
Value reported: 17.7
--
Molecule: CCN1CCN(CC2CCc3c(c4cc(F)ccc4n3Cc3ccc(C(=O)NO)cc3)C2=O)CC1 (centres unmarked) [Compound 189]
Value reported: 193.5
--
Molecule: Cc1nccn1CC1CCc2c(c3ccccc3n2CCCCCC(=O)NO)C1=O (centres unmarked) [Compound 194]
Value reported: 131.3
--
Molecule: Cc1c2c(n(CCCCCCC(=O)NO)c1C)CCCC2=O [Compound 328]
Value reported: 145.1
--
Molecule: O=C(NO)c1ccc(Cn2c3c(c4cc(F)ccc42)C(=O)C(CN2CC(F)(F)C2)CC3)cc1 (centres unmarked) [Compound 145]
Value reported: 925.1
--
Molecule: CCCCN1CCN(CC2CCc3c(c4ccccc4n3CCCCCC(=O)NO)C2=O)CC1 (centres unmarked) [Compound 208]
Value reported: 152.8
--
Molecule: Cc1cc2c(n1CCCCCC(=O)NO)CC(C)(C)CC2=O [Compound 345]
Value reported: 14.3
--
Molecule: Cc1c2c(n(Cc3ccc(C(=O)NO)cc3)c1C)CCCC2=O [Compound 220]
Value reported: 643.1

###

In this section, each of the compounds is paired with its reported IC50.
- Subject of test: HDAC4 (Homo sapiens)
- Sequence (P56524 whole entry, species assumed): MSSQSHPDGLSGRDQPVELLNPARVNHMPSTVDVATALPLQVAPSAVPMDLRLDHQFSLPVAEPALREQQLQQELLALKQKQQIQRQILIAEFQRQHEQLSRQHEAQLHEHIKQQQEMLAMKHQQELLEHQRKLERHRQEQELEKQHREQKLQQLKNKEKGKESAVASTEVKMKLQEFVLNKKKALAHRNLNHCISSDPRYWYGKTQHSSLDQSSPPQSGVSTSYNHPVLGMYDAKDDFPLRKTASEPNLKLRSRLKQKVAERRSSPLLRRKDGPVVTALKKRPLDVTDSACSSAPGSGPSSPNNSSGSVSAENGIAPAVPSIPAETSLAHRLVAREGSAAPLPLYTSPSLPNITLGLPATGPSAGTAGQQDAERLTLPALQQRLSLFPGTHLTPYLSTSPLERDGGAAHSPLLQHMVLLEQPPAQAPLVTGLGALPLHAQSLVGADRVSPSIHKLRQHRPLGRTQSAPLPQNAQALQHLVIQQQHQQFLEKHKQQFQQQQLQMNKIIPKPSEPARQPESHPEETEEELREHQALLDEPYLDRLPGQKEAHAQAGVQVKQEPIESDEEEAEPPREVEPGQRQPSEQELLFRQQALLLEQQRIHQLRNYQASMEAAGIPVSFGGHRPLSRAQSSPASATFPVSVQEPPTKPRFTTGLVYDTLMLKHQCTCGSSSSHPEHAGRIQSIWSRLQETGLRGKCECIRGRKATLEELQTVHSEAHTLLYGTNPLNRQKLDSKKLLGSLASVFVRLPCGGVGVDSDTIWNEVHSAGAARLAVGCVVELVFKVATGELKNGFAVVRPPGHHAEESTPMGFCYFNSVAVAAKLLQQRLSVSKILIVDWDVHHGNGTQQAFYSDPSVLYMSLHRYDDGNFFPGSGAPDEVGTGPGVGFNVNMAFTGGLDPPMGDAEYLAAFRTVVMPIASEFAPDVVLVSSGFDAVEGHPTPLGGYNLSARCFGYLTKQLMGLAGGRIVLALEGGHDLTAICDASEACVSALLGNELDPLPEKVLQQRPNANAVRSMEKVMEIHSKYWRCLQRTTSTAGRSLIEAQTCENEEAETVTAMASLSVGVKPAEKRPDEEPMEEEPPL

Compound: CN1CCN(CC2CCc3c(c4cc(F)ccc4n3Cc3ccc(C(=O)NO)cc3)C2=O)CC1 (centres unmarked)
Subject of test: HDAC4 (Homo sapiens)
IC50, µM: 2.21
--
Compound: CC1(C)CC(=O)c2c(C(F)(F)F)nn(Cc3ccc(C(=O)NO)cc3)c2C1
Subject of test: HDAC4 (Homo sapiens)
IC50, µM: 4.99
--
Compound: O=C(NO)c1ccc(Cn2c3c(c4ccccc42)C(=O)C(CN2CCOCC2)CC3)cc1 (centres unmarked)
Subject of test: HDAC4 (Homo sapiens)
IC50, µM: 0.934
--
Compound: O=C(NO)c1ccc(Cn2c3c(c4ccccc42)C(=O)N(CCN2CCOCC2)CC3)cc1
Subject of test: HDAC4 (Homo sapiens)
IC50, µM: 0.255
--
Compound: CN1CCN(C(=O)N(CCCCCCC(=O)NO)c2ccc(-c3ccc4cnn(C)c4c3)cc2)CC1 [CKD-581, reference compound]
Subject of test: HDAC4 (Homo sapiens)
IC50, µM: 1.68

###

- Subject of test: HDAC2 (Homo sapiens, UniProt Q92769)
- Sequence (Q92769 whole entry, species assumed): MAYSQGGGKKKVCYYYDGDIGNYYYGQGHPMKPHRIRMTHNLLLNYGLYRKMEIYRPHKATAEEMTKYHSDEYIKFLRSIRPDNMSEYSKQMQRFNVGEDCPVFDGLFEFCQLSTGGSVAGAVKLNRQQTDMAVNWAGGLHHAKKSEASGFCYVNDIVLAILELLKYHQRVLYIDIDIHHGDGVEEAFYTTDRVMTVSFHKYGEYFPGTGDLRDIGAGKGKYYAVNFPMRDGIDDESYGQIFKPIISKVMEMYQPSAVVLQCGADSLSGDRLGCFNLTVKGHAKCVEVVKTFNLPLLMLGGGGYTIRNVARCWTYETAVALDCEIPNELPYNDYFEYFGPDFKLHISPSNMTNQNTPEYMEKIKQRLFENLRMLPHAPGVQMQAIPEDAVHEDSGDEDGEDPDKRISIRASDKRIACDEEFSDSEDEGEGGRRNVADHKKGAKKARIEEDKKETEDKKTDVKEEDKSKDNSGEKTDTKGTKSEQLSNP
Reported endpoint: IC50

Compound: CN1CCN(C(=O)N(CCCCCCC(=O)NO)c2ccc(-c3ccc4cnn(C)c4c3)cc2)CC1 [CKD-581, reference compound]
Value reported: 1.58 nM

###

- Subject of test: human recombinant HDAC6 (Homo sapiens, UniProt Q9UBN7)
- Construct: purchased Calibiochem Co. (so in the source) 382180
- Sequence (Q9UBN7 1-1215): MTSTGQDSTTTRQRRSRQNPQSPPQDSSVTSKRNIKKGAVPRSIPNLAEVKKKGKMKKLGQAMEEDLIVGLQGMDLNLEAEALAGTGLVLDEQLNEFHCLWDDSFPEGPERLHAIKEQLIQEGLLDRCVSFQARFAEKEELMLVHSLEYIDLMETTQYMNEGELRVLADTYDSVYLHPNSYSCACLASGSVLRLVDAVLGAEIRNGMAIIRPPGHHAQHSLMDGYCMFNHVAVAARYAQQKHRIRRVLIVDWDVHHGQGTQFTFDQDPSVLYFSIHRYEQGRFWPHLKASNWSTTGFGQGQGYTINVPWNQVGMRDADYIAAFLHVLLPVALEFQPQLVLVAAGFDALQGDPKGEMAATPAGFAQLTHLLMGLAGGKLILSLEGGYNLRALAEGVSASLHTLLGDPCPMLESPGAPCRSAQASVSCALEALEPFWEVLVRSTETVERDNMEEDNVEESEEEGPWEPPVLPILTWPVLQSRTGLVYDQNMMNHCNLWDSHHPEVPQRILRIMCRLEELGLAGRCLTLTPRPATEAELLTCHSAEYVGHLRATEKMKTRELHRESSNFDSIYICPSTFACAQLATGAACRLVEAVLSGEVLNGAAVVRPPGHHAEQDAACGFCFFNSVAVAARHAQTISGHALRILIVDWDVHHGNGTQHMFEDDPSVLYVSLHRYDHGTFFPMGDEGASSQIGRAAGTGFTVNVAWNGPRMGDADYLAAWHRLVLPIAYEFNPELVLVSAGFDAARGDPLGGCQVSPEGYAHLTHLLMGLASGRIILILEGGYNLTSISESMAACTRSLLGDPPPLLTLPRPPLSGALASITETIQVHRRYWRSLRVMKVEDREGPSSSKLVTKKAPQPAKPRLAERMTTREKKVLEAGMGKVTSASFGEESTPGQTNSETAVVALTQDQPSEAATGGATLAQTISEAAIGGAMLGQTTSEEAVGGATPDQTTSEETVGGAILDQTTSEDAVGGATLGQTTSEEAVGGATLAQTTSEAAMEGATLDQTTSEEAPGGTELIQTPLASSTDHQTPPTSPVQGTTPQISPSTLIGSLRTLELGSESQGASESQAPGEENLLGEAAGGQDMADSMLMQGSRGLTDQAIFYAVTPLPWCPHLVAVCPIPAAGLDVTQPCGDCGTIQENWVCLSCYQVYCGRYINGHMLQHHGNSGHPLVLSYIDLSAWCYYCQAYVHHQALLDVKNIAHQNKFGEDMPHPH
- Assay method text: HDAC enzyme activity test, HDAC6
- Format: biochemical
- Condition: Table 12; read-out: Inhibition ability (IC50) HDAC6
pIC50: −log10 of the molar value.
Reported endpoint: pIC50

Molecule: O=C(CCCCCCn1c2c(c3cc(F)ccc31)C(=O)CCC2)NO [Compound 325]
Value reported: 8.52

Molecule: O=C(NO)c1ccc(Cn2c3c(c4cc(F)ccc42)C(=O)N(CCN2CCC[C@@H]2CO)CC3)cc1 [Compound 289]
Value reported: 7.94

Molecule: CC1(C)Cc2c(c3cc(F)ccc3n2Cc2ccc(C(=O)NO)cc2)C(=O)C1CN1CCOCC1 (stereo not shown) [Compound 207]
Value reported: 7.36

Molecule: CC1(C)CC(=O)c2c(n(CCCCCCC(=O)NO)c3c(Cl)cc(Cl)cc23)C1 [Compound 51]
Value reported: 6.98
